Readings of Tmax for the listed compounds
# experiment notes: Tmax in mouse at 20 mg/kg, po
# Assay type: ADME, organism-based
# Set-up: dose 20 mg/kg, route oral
# run conditions: in vivo
Use min as the unit, but write only the number.

Check out these entries, answers already filled in.
CN(C(=O)c1cn2c(-c3ccc(-c4nnc(N)s4)cc3)cnc2cn1)c1ccc(C#N)cc1 | 102
CNC(=O)c1ccc(-c2cnc3cnc(C(=O)N(C)c4ccc(Cl)cc4)cn23)cc1 | 30
CNC(=O)c1ccc(-c2cnc3cnc(C(=O)N(C)c4ccc(C#N)cc4)cn23)cc1 | 30

Return reported Tmax; argument: "CN(C(=O)c1cn2c(-c3ccc(C(N)=O)cc3)cnc2cn1)c1ccc(F)cc1"
30
